System: K4 kissing-loop RNA reporter;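 further: bound reporter read as fluorescence of individual clusters on recovered sequencing chips by microscopy, with normalized cluster intensities fitted with a binding model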
Assay: apparent KD of K4 kissing-loop reporter; higher = weaker reporter binding
Details: Eterna round: R107; input ligand: none
measurement.type: apparent KD of K4 kissing-loop reporter (nM)
Provide the reading as a plain figure in nM.

[
  {
    "construct.sequence": "UGUAAUGAGUGAUGUUCAUGUAGUAAGGAUACCAGUAAUUCAAAAUGCCCUUGGCAGCUUAGUUCUAUCUAUAGUUGGGUAGUGG [Theophilline A V4 (+5U)]",
    "experimental.system": "K4 kissing-loop RNA reporter",
    "apparent KD of K4 kissing-loop reporter (nM)": 205
  },
  {
    "construct.sequence": "GGAUAGGACAAAGGAUAUGGUAGUGAUGUUACCAAACUGGUUAAACAUGUCAGAAAACUGGCAUGACCAGAAGGUUGUCCUAUCG [FmnBX 27 A11+U75]",
    "experimental.system": "K4 kissing-loop RNA reporter",
    "apparent KD of K4 kissing-loop reporter (nM)": 66.3
  },
  {
    "construct.sequence": "GUCUCAAAAGAGGCAAGCACUCACGAGGACAAGGAUAUCAUAUCAAUGAGAAGGUGUCCUCGUCCUCAGUGAUGUUGAGGAGUGC [Omei KL FMN A SS E v4]",
    "experimental.system": "K4 kissing-loop RNA reporter",
    "apparent KD of K4 kissing-loop reporter (nM)": 247
  },
  {
    "construct.sequence": "GGAACGUUGCGGACUAUCGCAUAAAGUCACCGAGGACCGGUACGGCCGCCACUCGCCAGUGAUGUUGGCGUGUUUGCGCGCUGUA [Isteri]",
    "experimental.system": "K4 kissing-loop RNA reporter",
    "apparent KD of K4 kissing-loop reporter (nM)": 101
  },
  {
    "construct.sequence": "GGUAGCAUGGCGGCCGCCACUUCGAAUAAGUGAUGUUUAUUUGACUGAGCACCCUAUGCCAUGUGAAGGACCGGGCCAUGCUACC",
    "experimental.system": "K4 kissing-loop RNA reporter",
    "apparent KD of K4 kissing-loop reporter (nM)": 157
  },
  {
    "construct.sequence": "UGACUGGACUGAAGGAGCGCUGAACUCCUAGUGAUGUUAGGAAAACGAGACAAAGUCUCGAAGCAGGUAGGUCGCAGUCUAGUCU",
    "experimental.system": "K4 kissing-loop RNA reporter",
    "apparent KD of K4 kissing-loop reporter (nM)": 112
  }
]

Lookup result for AAUAACUAGUAUAUUUGUAAUAAAACAGAUACCAGUGAUAAUAAACACCCUUGGCAGCUGAUCGAGUGAUGUUCGUUUAUUUUAA [JR_SSTheophyA_Sub004] ; measured apparent KD of K4 kissing-loop reporter: 124

Lookup result for UUAAUAAUUCAAGGAUAUGUUUUCUAUUUCGAGUGAUGUUCGGAAUUAAUAAAUUUAAAAGAUUAUACAGAAGGUGAUGGAUAGU [Cynwulf-mod#4] ; measured apparent KD of K4 kissing-loop reporter: 109

Lookup result for UGAUACCAGACUGAUACCAGCAAGUGAUGUUUGUUGAUCUAAAGCAGUCAAAGACUGCCUUGCCCUUGGCAGCAGUCUGGUAUCU [TheoBX 27 #SwitchBubble #StaticStem] ; measured apparent KD of K4 kissing-loop reporter: 832

Lookup result for GCACUUCUCAGUGAUGUUGAGUAAUCGGAAGGAGCGCGUGAAAACGCAGGUAGGUCGCCGAUACAUGAAGUAUCUUCGUGUGUGC [Arginine A K4 25] ; measured apparent KD of K4 kissing-loop reporter: 295

Lookup result for AUUUUAUUAACUGAUACCAGACUUAAUGAAUUGUAAAUUACUAGUGAUGUUAGUGAUUCUGUCCCUUGGCAGCAGUAUUUAUUAA [JR_ExcTheophyB_Sub012] ; measured apparent KD of K4 kissing-loop reporter: 139

Lookup result for CCAUCGCUAUUCGAUACCAGUCAUAAAAUCUUUGGUUUAAUAAAGGAGUGAUGUUCCCAAGACCCUUGGCAGCGAAUAGUGAUGG [Theophylline B K4 8] ; measured apparent KD of K4 kissing-loop reporter: 176
